# measured_target: M4 muscarinic receptor (Homo sapiens)
# Construct: expressed in transfected cells; host or cells: CHO (M4-CHO)
# Sequence (P08173 1-479): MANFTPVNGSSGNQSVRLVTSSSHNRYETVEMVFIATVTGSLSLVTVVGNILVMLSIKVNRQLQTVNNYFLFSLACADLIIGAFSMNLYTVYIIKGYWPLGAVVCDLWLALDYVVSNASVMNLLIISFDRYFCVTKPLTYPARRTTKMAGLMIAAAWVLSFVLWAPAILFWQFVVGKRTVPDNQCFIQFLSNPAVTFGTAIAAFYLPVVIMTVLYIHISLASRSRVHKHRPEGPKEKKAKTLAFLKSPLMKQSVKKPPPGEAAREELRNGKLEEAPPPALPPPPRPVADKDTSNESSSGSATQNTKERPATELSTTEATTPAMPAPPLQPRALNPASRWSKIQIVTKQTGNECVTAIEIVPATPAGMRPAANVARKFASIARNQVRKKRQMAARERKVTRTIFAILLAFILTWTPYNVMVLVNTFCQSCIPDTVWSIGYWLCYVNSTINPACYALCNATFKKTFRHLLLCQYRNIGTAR
# protocol_summary: Functional mobilization of intracellular calcium (FLIPR), M4-CHO cells
# Format: cell-based
# experimental_conditions: 100% efficacy is the maximum response obtained using Carbachol as a control
parameter: Emax

The examples below pair each entry with its known result.
CCOC(=O)N1CCC(N2CCC3(CC2)CN(C(=O)NC(C)C)Cc2ccccc23)CC1 | 25 to 100%
CCOC(=O)N1CCC(N2CCC3(CC2)CN(C(=O)CC(F)(F)F)Cc2ccccc23)CC1 | 25 to 100%
CCOC(=O)N1CCC(CN2CCC3(CC2)CN(C(=O)OC(C)C)Cc2ccccc23)CC1 | 25 to 100%
CC(C)OC(=O)N1C2CCC1CC(N1CCC3(CC1)CN(S(=O)(=O)N(C)C)Cc1ccccc13)C2 (centres unmarked) | 25 to 100%
CC(=O)N1Cc2ccccc2C2(CCN(C3(C)CCCCC3)CC2)C1 | 25 to 100%
CCOC(=O)N1CCC(N2CCC3(CC2)CN(C(=O)OC2CCCC2)Cc2ccccc23)CC1 | 25 to 100%
CCOC(=O)N1C2CCC1CC(N1CCC3(CC1)CN(C(=O)C1CCC1)Cc1ccccc13)C2 (centres unmarked) | 25 to 100%
CCOC(=O)N1CCC(CN2CCC3(CC2)CN(C(=O)C2CCC2)Cc2ccccc23)CC1 | 25 to 100%
CCOc1ccc(CN2CCC3(CC2)CN(C(C)=O)Cc2ccccc23)cc1 | < 25%
CCC(=O)CN1CCC2(CC1)CN(C(C)=O)Cc1ccccc12 | < 25%

For the compound CCOC(=O)N1C2CCC1CC(N1CCC3(CC1)CN(C(=O)C1CC1)Cc1ccccc13)C2.Cl (centres unmarked) [compound 224, hydrochloride] , what Emax is on record? 25 to 100%

Can you check `O=C1c2ccccc2C2(CCN(CC3CCCCC3)CC2)N1Cc1ccccc1` next? < 25%

# repeat for COC(=O)N1Cc2ccccc2C2(CCN(C3CC4CCC(C3)N4C(=O)OC(C)C)CC2)C1 (centres unmarked) 25 to 100%

Request: `CC(=O)c1ccc(CN2CCC3(CC2)CN(C(C)=O)Cc2ccccc23)cc1` < 25%

Another compound to look at: `CCOC(=O)N1CCC(CN2CCC3(CC2)CN(C(=O)c2snnc2C)Cc2ccccc23)CC1` 25 to 100%

Next: Cc1cc(C(=O)N2Cc3ccccc3C3(CCN(C4CC5CCC(C4)N5C(=O)O[C@@H]4CCOC4)CC3)C2)nn1C (some centres unmarked) 25 to 100%

And `CC(=O)N1Cc2ccccc2C2(CCN(CC3=C(C)C=CCC3(C)C)CC2)C1` ? 25 to 100%

Same question for COC(=O)N1C2CCC1CC(N1CCC3(CC1)CN(C(C)=O)Cc1ccccc13)C2 (centres unmarked) please. 25 to 100%

Try this compound next: `CCOC(=O)N1CCC(N2CCC3(CC2)CN(S(C)(=O)=O)Cc2ccccc23)CC1` 25 to 100%

Another: `CCOC(=O)N1CCC(N2CCC3(CC2)CN(C(=O)OCCOC)Cc2ccccc23)CC1` 25 to 100%
